# system: Recombinant human 5′-nucleotidase (hCD73) (Homo sapiens, UniProt P21589)
# Sequence (P21589 27-549): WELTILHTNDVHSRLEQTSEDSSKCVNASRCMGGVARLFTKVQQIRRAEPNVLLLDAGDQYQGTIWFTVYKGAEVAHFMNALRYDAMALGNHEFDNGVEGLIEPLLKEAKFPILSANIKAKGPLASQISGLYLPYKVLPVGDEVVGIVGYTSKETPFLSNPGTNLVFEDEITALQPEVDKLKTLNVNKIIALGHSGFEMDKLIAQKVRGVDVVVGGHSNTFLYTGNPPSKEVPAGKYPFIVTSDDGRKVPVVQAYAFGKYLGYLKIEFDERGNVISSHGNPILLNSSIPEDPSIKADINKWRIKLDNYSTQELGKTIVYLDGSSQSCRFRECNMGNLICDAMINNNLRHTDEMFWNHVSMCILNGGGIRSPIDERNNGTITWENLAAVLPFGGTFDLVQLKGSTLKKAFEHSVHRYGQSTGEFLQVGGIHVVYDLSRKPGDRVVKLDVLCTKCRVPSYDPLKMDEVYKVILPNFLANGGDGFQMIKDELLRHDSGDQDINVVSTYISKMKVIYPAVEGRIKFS
# measurementNotes: CD73 enzyme inhibition assay (recombinant hCD73, AMP substrate, phosphate detection)
# testContext: 37° C. 20 min, absorbance 635 nm
endpoint: IC50 (nM)

[
  {
    "molecule": "O=P(O)(O)CP(=O)(O)OC[C@H]1O[C@@H](n2cnc3c(N4CC(c5ccccc5)c5ccccc54)nc(Cl)nc32)C(O)C1O (stereo partly shown)",
    "unitAbbrev": "nM",
    "endpointResult": 1.92
  },
  {
    "molecule": "O=P(O)(O)CP(=O)(O)OC[C@H]1O[C@@H](n2cnc3c(N4CC5(CCCCC5)c5ccccc54)nc(Cl)nc32)[C@@H](O)C1O (stereo partly shown)",
    "unitAbbrev": "nM",
    "endpointResult": 1.8
  },
  {
    "molecule": "O=P(O)(O)CP(=O)(O)OC[C@H]1O[C@@H](n2cnc3c(N4CCC5(CCCCC5)C4)nc(Cl)nc32)[C@@H](O)C1O (stereo partly shown) [Compound b, reference compound]",
    "unitAbbrev": "nM",
    "endpointResult": 1.08
  },
  {
    "molecule": "O=P(O)(O)CP(=O)(O)OC[C@H]1O[C@@H](n2cnc3c(N4CC5(CCCc6ccccc65)C4)nc(Cl)nc32)[C@@H](O)C1O (stereo partly shown)",
    "unitAbbrev": "nM",
    "endpointResult": 0.4
  },
  {
    "molecule": "O=P(O)(O)CP(=O)(O)OC[C@H]1O[C@@H](n2cnc3c(N4CCC5(CCc6ccccc65)C4)nc(Cl)nc32)C(O)C1O (stereo partly shown)",
    "unitAbbrev": "nM",
    "endpointResult": 0.75
  },
  {
    "molecule": "O=P(O)(O)CP(=O)(O)OC[C@H]1O[C@@H](n2cnc3c(N4CCC(c5ccccc5)(c5ccccc5)C4)nc(Cl)nc32)C(O)C1O (stereo partly shown)",
    "unitAbbrev": "nM",
    "endpointResult": 1.76
  },
  {
    "molecule": "O=P(O)(O)CP(=O)(O)OC[C@H]1O[C@@H](n2cnc3c(N4CC5(CCc6ccccc65)C4)nc(Cl)nc32)[C@@H](O)C1O (stereo partly shown)",
    "unitAbbrev": "nM",
    "endpointResult": 0.47
  }
]
